Biological target: human Fc (human)
Assay: ELISA, negative control
Reported Metric: optical density (OD)
Please state the figure in OD; there is no need to write the unit.

Summary for this binder, 375_A07 (antibody, V domains shown) VH: EVQLLESGGGLVQPGGSLRLSCAASGFTFDSYSMNWVRQAPGKGLEWVSSINYNSGYTGYADSVKGRFTISRDNSKNTLYLQMNSLRAEDTAVYYCARGANWHDTHLDYWGQGTLVTVSS VL: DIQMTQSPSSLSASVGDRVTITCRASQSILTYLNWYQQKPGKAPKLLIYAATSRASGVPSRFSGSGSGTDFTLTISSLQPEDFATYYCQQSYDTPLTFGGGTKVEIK : optical density is 0.188

Note to self: optical density recorded for 374_E10 (antibody, V domains shown) VH: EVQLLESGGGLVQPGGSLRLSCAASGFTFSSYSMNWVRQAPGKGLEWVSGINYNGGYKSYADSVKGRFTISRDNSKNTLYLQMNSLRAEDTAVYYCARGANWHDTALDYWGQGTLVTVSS VL: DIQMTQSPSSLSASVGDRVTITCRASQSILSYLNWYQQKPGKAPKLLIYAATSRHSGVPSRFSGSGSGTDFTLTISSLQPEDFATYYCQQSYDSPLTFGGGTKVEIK was 0.165

Value of measured optical density for the entry 373_B07 (antibody, V domains shown) VH: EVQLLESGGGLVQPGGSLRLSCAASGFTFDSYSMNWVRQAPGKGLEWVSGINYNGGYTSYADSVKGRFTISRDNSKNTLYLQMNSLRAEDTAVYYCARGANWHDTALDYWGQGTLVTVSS VL: DIQMTQSPSSLSASVGDRVTITCRASQSILTYVNWYQQKPGKAPKLVIYAATSRASGVPSRFSGSGSGTDFTLTISSLQPEDFATYYCQQSYELPLTFGGGTKVEIK : 0.208

# optical density (binder: 374_C07 (antibody, V domains shown) VH: EVQLLESGGGLVQPGGSLRLSCAASGFTFDSYSMNWVRQAPGKGLEWVSNINYNGGYTSYADSVKGRFTISRDNSKNTLYLQMNSLRAEDTAVYYCARSATWHDTHLDYWGQGTLVTVSS VL: DIQMTQSPSSLSASVGDRVTITCRASQSIISYLNWYQQKPGKAPKLLIYAATSRASGVPSRFSGSGSGTDFTLTISSLQPEDFATYYCQQSDELPLTFGGGTKVEIK ) is 0.225

optical density in this record for 367_A08 (antibody, V domains shown) VH: EVQLLESGGGLVQPGGSLRLSCAASGFTFDSYGMNWVRQAPGKGLEWVAGINYNGGYTSYADSVKGRFTISRDNSKNTLYLQMNSLRAEDTAVYYCARGANWHDTHLDYWGQGTLVTVSS VL: DIQMTQSPSSLSASVGDRVTITCRASQSILTYLNWYQQKPGKAPKLLIYAVTSRASGVPSRFSGSGSGTDFTLTISSLQPEDFATYYCQQSYDSPLTFGGGTKVEIK : 0.252
